Reference source for all entries: PubChem BioAssay

Listing: cell count of selected compounds
Assay: inhibitors of TNFa-induced NFkB p65 translocation, primary screen, imaging, HUVEC, MLSMR starter and 10KST1 sets (AID 438);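 also: compound added about 3h40 before a 20 min TNFalpha stimulation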
Settings: HUVEC TNFa-induced p65 nuclear translocation; measured here: nuclei count (cytotoxicity indicator), at 2.08 µM
endpoint_label: cell count

>  <compound>
CCOC(=O)c1c(C)oc2c1c1c(c3ccccc32)OCN(Cc2cccnc2)C1

>  <result_value>
499

$$$$
>  <compound>
CCCCOc1ccccc1C1C(C(N)=O)=C(C)Nc2nnnn21 (stereo not given)

>  <result_value>
279

$$$$
>  <compound>
Nc1ncnc2oc(-c3ccco3)c(-c3ccco3)c12

>  <result_value>
413

$$$$
>  <compound>
Clc1ccc(-n2ncc3c(N4CCCC4)ncnc32)cc1

>  <result_value>
589

$$$$
>  <compound>
Cc1ccccc1-n1c(Cn2c(=O)sc3ccccc32)nnc1SCC(=O)N1CCCC1

>  <result_value>
652

$$$$
>  <compound>
Cc1cccc(CCNC(=O)CCc2nc(-c3ccccc3F)no2)c1

>  <result_value>
357

$$$$
>  <compound>
CCCCCn1c(CN2CCN(C(=O)c3ccco3)CC2)nc2c1c(=O)n(C)c(=O)n2C

>  <result_value>
726

$$$$
>  <compound>
Cc1cc(C)c2c(=O)n(CC(=O)NCCCN3CCN(c4ccccc4F)CC3)sc2n1

>  <result_value>
725

$$$$
>  <compound>
CCOCCCNC(=O)C(c1ccc(C)cc1)N(Cc1ccc2c(c1)OCO2)C(=O)c1cnccn1 (stereo not given)

>  <result_value>
275

$$$$
>  <compound>
CCOC(=O)CSc1nc(N)c(C(=O)Nc2ccc(N(C)C)cc2)s1

>  <result_value>
703

$$$$
